Molecular target: PKR R510Q (Homo sapiens, UniProt P30613, R510Q)
Sequence (P30613 whole entry R510Q): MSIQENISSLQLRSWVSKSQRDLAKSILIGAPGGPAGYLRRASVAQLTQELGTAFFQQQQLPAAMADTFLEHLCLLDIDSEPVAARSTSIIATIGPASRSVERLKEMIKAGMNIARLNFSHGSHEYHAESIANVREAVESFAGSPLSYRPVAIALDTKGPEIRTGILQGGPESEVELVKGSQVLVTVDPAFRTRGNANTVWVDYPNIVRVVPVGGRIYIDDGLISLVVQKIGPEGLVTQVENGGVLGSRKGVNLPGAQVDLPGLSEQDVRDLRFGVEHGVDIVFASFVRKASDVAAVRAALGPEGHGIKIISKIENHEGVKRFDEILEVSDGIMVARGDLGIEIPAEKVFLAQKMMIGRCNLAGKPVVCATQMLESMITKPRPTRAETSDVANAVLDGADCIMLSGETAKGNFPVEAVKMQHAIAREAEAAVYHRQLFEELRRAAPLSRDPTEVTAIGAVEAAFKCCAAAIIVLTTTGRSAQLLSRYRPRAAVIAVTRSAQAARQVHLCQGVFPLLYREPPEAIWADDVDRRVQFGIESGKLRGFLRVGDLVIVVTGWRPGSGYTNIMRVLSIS
Test: PKR Mutant Assay, AC50 against PKR R510Q
Type: biochemical
Details: mutant PKR R510Q enzyme
As shown below, each of these molecules has a reported AC50 value.

{"Molecule": "O=C(c1ccc(NS(=O)(=O)c2cccc3cccnc23)cc1)N1CCC(O)(Cc2cccnc2F)CC1", "AC50": "101 to 1000 nM"}
{"Molecule": "N#Cc1cccc(C2(O)CCN(C(=O)c3ccc(NS(=O)(=O)c4cccc5cccnc45)cc3)CC2)c1", "AC50": "1010 to 10000 nM"}
{"Molecule": "CC(C)CC1(C=O)CCN(C(=O)c2ccc(NS(=O)(=O)c3cccc4cccnc34)cc2)CC1", "AC50": "< 100 nM"}
{"Molecule": "CC(C)(C)CC1(O)CCN(C(=O)c2ccc(NS(=O)(=O)c3cccc4scnc34)cc2)CC1", "AC50": "< 100 nM"}
{"Molecule": "O=C(c1ccc(NS(=O)(=O)c2cccc3scnc23)cc1)N1CCC(O)(c2ccccc2Cl)CC1", "AC50": "101 to 1000 nM"}
{"Molecule": "Cc1nc(C2(O)CCN(C(=O)c3ccc(NS(=O)(=O)c4cccc5cccnc45)cc3)CC2)ccc1F", "AC50": "101 to 1000 nM"}
{"Molecule": "O=C(c1ccc(NS(=O)(=O)c2cccc3scnc23)cc1)N1CCC(O)(c2ccccc2C(F)F)CC1", "AC50": "101 to 1000 nM"}
{"Molecule": "CC(F)(F)CCC1(O)CCN(C(=O)c2ccc(NS(=O)(=O)c3cccc4scnc34)cc2)CC1 [Compound 387]", "AC50": "101 to 1000 nM"}
{"Molecule": "O=C(c1ccc(NS(=O)(=O)c2c[nH]c3cccnc23)cc1)N1CCC(O)(c2ccccc2Cl)CC1", "AC50": "> 10000 nM"}
{"Molecule": "O=C(c1ccc(NS(=O)(=O)c2cccc3cccnc23)cc1)N1CCC(O)(c2ccccc2F)CC1", "AC50": "101 to 1000 nM"}
{"Molecule": "COc1cc(NS(=O)(=O)c2cccc3cccnc23)ccc1C(=O)N1CCC(O)(Cc2ccccc2)CC1", "AC50": "< 100 nM"}
{"Molecule": "O=C(c1ccc(NS(=O)(=O)c2c(F)ccc3ncsc23)cc1)N1CCC(O)(c2ccccc2Cl)CC1", "AC50": "> 10000 nM"}
{"Molecule": "Cn1cc(C2(O)CCN(C(=O)c3ccc(NS(=O)(=O)c4cccc5scnc45)cc3)CC2)cn1", "AC50": "101 to 1000 nM"}
{"Molecule": "O=C(c1c(F)cc(NS(=O)(=O)c2cccc3cccnc23)cc1F)N1CCC(O)(c2ccccc2Cl)CC1", "AC50": "101 to 1000 nM"}
{"Molecule": "O=C(c1ccc(NS(=O)(=O)c2cccc3cccnc23)cc1OC(F)F)N1CCC(O)(c2ccccc2Cl)CC1", "AC50": "< 100 nM"}
{"Molecule": "COc1cccc(C2(O)CCN(C(=O)c3ccc(NS(=O)(=O)c4cccc5cccnc45)cc3)CC2)c1", "AC50": "1010 to 10000 nM"}
{"Molecule": "O=C(c1ccc(NS(=O)(=O)c2cccc3c(O)ncnc23)cc1)N1CCC(O)(CCCC(F)(F)F)CC1", "AC50": "< 100 nM"}
{"Molecule": "O=C(c1ccc(NS(=O)(=O)c2cccc3cccnc23)cc1)N1CCC(O)(Cc2cccc(F)c2)CC1", "AC50": "< 100 nM"}
{"Molecule": "O=C(c1ccc(NS(=O)(=O)c2cccc3cccnc23)cc1)N1CCC(O)(c2cccc(OC(F)(F)F)c2)CC1", "AC50": "1010 to 10000 nM"}
{"Molecule": "CC(C)CC1(O)CCN(C(=O)c2ccc(NS(=O)(=O)c3cccc4[nH]c(=O)cnc34)cc2)CC1", "AC50": "1010 to 10000 nM"}
{"Molecule": "O=C(c1ccc(NS(=O)(=O)c2cccc3scnc23)cc1)N1CCC(O)(Cc2ccccc2C(F)(F)F)CC1 [Compound 412]", "AC50": "101 to 1000 nM"}
{"Molecule": "O=C(c1ccc(NS(=O)(=O)c2cccc3c(O)ncnc23)cc1)N1CCC(O)(/C=C/CC(F)(F)F)CC1", "AC50": "< 100 nM"}
{"Molecule": "CC1(CC2(O)CCN(C(=O)c3ccc(NS(=O)(=O)c4cccc5cccnc45)cc3)CC2)CC1", "AC50": "< 100 nM"}
{"Molecule": "O=C(c1ccc(NS(=O)(=O)c2cccc3nccnc23)cc1)N1CCC(O)(c2ccccc2Cl)CC1", "AC50": "101 to 1000 nM"}
{"Molecule": "O=C(c1ccc(NS(=O)(=O)c2cccc3cccnc23)cc1)N1CCC(O)(Cc2ccccc2C(F)(F)F)CC1", "AC50": "< 100 nM"}
{"Molecule": "O=C(c1ccc(NS(=O)(=O)c2cccc3cccnc23)cc1F)N1CCC(O)(Cc2ccccc2)CC1", "AC50": "< 100 nM"}
{"Molecule": "O=C(c1ccc(NS(=O)(=O)c2cccc3cnccc23)cc1)N1CCC(O)(Cc2ccccc2)CC1", "AC50": "1010 to 10000 nM"}
{"Molecule": "O=C(c1ccc(NS(=O)(=O)c2cccc3cccnc23)cc1)N1CCC(O)(Cc2ccccc2)CC1", "AC50": "< 100 nM"}
{"Molecule": "O=C(c1ccc(NS(=O)(=O)c2cccc3cccnc23)cc1)N1CCC(O)(c2cccc(F)n2)CC1", "AC50": "1010 to 10000 nM"}
